Data provenance: paper PMC10819430

Each item that follows carries a reported ΔG.
# TEST_TARGET: Human Serum Albumin (HSA) (Homo sapiens)
# Construct: HSA (≥96%) and six PFAS were all purchased from Aladdin Chemicals (Shanghai, China); purchased Aladdin Chemicals (Shanghai, China)
# Sequence (P02768 25-609): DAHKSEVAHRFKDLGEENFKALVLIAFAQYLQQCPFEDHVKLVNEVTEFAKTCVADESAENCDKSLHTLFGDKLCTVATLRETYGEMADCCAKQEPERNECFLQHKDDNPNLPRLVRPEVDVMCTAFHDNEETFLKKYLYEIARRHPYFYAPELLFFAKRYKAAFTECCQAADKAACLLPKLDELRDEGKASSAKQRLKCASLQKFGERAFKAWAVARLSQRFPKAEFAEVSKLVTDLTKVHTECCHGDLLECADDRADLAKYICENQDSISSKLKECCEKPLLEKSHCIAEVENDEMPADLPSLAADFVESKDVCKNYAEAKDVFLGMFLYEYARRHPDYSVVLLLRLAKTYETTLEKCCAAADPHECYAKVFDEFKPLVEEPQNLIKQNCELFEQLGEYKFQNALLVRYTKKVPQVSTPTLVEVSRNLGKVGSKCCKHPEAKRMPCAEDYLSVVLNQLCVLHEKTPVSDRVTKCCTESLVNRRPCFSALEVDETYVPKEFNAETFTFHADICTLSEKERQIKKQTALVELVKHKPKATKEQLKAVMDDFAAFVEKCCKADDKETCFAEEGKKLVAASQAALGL
# PROTOCOL_NOTES: Fluorescence quenching of HSA by PFAS (Stern–Volmer, double logarithmic and Van't Hoff analysis)
# Assay type: binding
# CONDITION_INFO: T = 298 K

| COMPOUND | ΔG, kcal/mol |
| --- | --- |
| O=C(O)C(F)(F)C(F)(F)C(F)(F)C(F)(F)C(F)(F)C(F)(F)C(F)(F)F [PFOA, Perfluorooctanoic Acid] | -7.302 |
| O=C(O)C(F)(F)C(F)(F)C(F)(F)C(F)(F)C(F)(F)C(F)(F)F [PFHpA, Perfluoroheptanoic Acid] | -4.986 |
| O=C(O)C(F)(OC(F)(F)C(F)(OC(F)(F)C(F)(F)C(F)(F)F)C(F)(F)F)C(F)(F)F (stereo not drawn) [HFPO-TA] | -8.956 |
| O=C(O)C(F)(F)C(F)(F)C(F)(F)C(F)(F)C(F)(F)C(F)(F)C(=O)O [DFSA, Dodecafluorosuberic Acid] | -4.338 |
| O=C(O)C(F)(F)OC(F)(F)C(F)(F)OC(F)(F)C(F)(F)OC(F)(F)F [PFO3DA, Perfluoro-3,6,9-trioxadecanoic Acid] | -7.091 |
| O=C(O)C(F)(F)C(F)(F)C(F)(F)C(F)(F)C(F)(F)C(F)(F)C(F)(F)C(F)(F)F [PFNA, Perfluorononanoic Acid] | -9.398 |

###

# TEST_TARGET: HSA (Homo sapiens)
# Construct: HSA (≥96%) and six PFAS were all purchased from Aladdin Chemicals (Shanghai, China); purchased Aladdin Chemicals (Shanghai, China)
# Sequence (P02768 25-609): as above
# PROTOCOL_NOTES: Competitive probe experiment (warfarin, ibuprofen, lidocaine)
# Format: binding
# CONDITION_INFO: warfarin probe
Each item that follows carries a reported φ (rate of decrease in Kb).

| COMPOUND | φ (rate of decrease in Kb) / % |
| --- | --- |
| O=C(O)C(F)(F)C(F)(F)C(F)(F)C(F)(F)C(F)(F)C(F)(F)F [PFHpA, Perfluoroheptanoic Acid] | 98.9 |
| O=C(O)C(F)(F)C(F)(F)C(F)(F)C(F)(F)C(F)(F)C(F)(F)C(F)(F)C(F)(F)F [PFNA, Perfluorononanoic Acid] | 98.3 |
| O=C(O)C(F)(OC(F)(F)C(F)(OC(F)(F)C(F)(F)C(F)(F)F)C(F)(F)F)C(F)(F)F (stereo not drawn) [HFPO-TA] | 99.6 |
| O=C(O)C(F)(F)C(F)(F)C(F)(F)C(F)(F)C(F)(F)C(F)(F)C(=O)O [DFSA, Dodecafluorosuberic Acid] | 93.3 |
| O=C(O)C(F)(F)OC(F)(F)C(F)(F)OC(F)(F)C(F)(F)OC(F)(F)F [PFO3DA, Perfluoro-3,6,9-trioxadecanoic Acid] | 95.1 |
| O=C(O)C(F)(F)C(F)(F)C(F)(F)C(F)(F)C(F)(F)C(F)(F)C(F)(F)F [PFOA, Perfluorooctanoic Acid] | 96.1 |

###

Each item that follows carries a reported 3D-EEM Peak A Position λex/λem.
# TEST_TARGET: HSA (Homo sapiens)
# Construct: HSA (≥96%) and six PFAS were all purchased from Aladdin Chemicals (Shanghai, China); purchased Aladdin Chemicals (Shanghai, China)
# PROTOCOL_NOTES: 3D-EEM fluorescence spectra of HSA–PFAS
# CONDITION_INFO: HSA 1 × 10^−6, PFAS 1.8 × 10^−5 mol·L^−1

| COMPOUND | 3D-EEM Peak A Position λex/λem |
| --- | --- |
| O=C(O)C(F)(OC(F)(F)C(F)(OC(F)(F)C(F)(F)C(F)(F)F)C(F)(F)F)C(F)(F)F (stereo not drawn) | 280/321 |
| O=C(O)C(F)(F)OC(F)(F)C(F)(F)OC(F)(F)C(F)(F)OC(F)(F)F | 280/329 |
| O=C(O)C(F)(F)C(F)(F)C(F)(F)C(F)(F)C(F)(F)C(F)(F)C(F)(F)F | 280/336 |
| O=C(O)C(F)(F)C(F)(F)C(F)(F)C(F)(F)C(F)(F)C(F)(F)C(F)(F)C(F)(F)F | 280/329 |
| O=C(O)C(F)(F)C(F)(F)C(F)(F)C(F)(F)C(F)(F)C(F)(F)F | 280/336 |
| O=C(O)C(F)(F)C(F)(F)C(F)(F)C(F)(F)C(F)(F)C(F)(F)C(=O)O | 280/336 |
